# credit: the supplement of paper PMC4466140

target_system: ScSla1-D3
test_summary: SPOT peptide array binding signal intensity (averaged, normalized) (arbitrary units (background-subtracted, floor 0; scale differs between SH3 domains)); higher = stronger binding of the SH3 domain to the peptide
metric: SPOT peptide array binding signal intensity
// no unit string in output, number only

Item: NTMKKRPAPPSLPSL | SPOT peptide array binding signal intensity: 521

Item: RRRRRPHRIERPLSN | SPOT peptide array binding signal intensity: 11

Item: PKRRAPPPVPKKPSS | SPOT peptide array binding signal intensity: 1510

Item: NPLPKEPRLPKRKVA | SPOT peptide array binding signal intensity: 4.5

Item: KMSRSPPRPPSLKII | SPOT peptide array binding signal intensity: 270

Item: GKLKHIPRRPYEIER | SPOT peptide array binding signal intensity: 0.75

Item: SNRRPVPRRPSQPLN | SPOT peptide array binding signal intensity: 66.1

Item: SRSKPLPLTPNSKYN | SPOT peptide array binding signal intensity: 28.2

Item: VQKRKLPLPGSIASA | SPOT peptide array binding signal intensity: 32.5

Item: ATNVPVAPPPPPASL | SPOT peptide array binding signal intensity: 2.25

Item: KKEKKPPKIPKKVYT | SPOT peptide array binding signal intensity: 14.5

Item: RAPPPVPKKPSSRIA | SPOT peptide array binding signal intensity: 331

Item: QNTPPLPPKPKSPHL | SPOT peptide array binding signal intensity: 4.5

Item: RSKRLFPVRPMATAH | SPOT peptide array binding signal intensity: 34

Item: SSSSSPPPLPTRRDH | SPOT peptide array binding signal intensity: 10

Item: TKFRISLGLPVGAIM | SPOT peptide array binding signal intensity: 122
